Reference source: ChEMBL document CHEMBL2150997

- Method Summary: Protein binding in human plasma
- Assay type: ADME, cell-free
- Condition Summary: read-out: PPB (converted)
molecules and their reported fraction unbound

Worked cases, fraction unbound given:
- Nc1c2c(nc3ccccc13)CCCC2: 0.45
- CN/C(=N\CCSCc1nc[nH]c1C)NC#N: 0.81
- CN(C)CCCN1c2ccccc2CCc2ccccc21: 0.1

IN: Quick check: fraction unbound of CC(C)N(CCC(C(N)=O)(c1ccccc1)c1ccccn1)C(C)C (centres undefined) [DISOPYRAMIDE] ?
OUT: 0.5

* * *

- Method Summary: Cmax in human
- Assay type: ADME, organism-based
- Condition Summary: in vivo
compounds and their reported Cmax
Field format: number, assumed µM, no unit text.

• CN/C(=N\CCSCc1nc[nH]c1C)NC#N = 11.9

IN: Quick check: Cmax of Cc1nccn1CC1CCc2c(c3ccccc3n2C)C1=O (configuration not stated) ?
OUT: 0.13

* * *

- System Under Test: UniProt:O15244
- Sequence (O15244 whole entry): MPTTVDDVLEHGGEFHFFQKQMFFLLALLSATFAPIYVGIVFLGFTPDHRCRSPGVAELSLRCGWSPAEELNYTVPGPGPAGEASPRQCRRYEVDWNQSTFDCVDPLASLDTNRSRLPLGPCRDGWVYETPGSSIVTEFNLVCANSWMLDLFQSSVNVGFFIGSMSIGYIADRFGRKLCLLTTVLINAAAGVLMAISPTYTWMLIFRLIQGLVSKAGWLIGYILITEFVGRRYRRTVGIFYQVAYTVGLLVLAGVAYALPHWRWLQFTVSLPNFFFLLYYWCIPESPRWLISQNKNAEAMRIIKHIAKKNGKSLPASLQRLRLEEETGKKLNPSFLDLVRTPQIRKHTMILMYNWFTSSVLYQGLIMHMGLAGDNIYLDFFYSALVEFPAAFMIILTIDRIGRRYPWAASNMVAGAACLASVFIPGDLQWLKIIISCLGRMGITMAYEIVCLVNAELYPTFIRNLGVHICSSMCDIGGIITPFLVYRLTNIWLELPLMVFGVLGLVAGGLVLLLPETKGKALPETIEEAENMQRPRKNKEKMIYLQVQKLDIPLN
Readout Label: pIC50
Lab note: report pIC50 as minus log10 of the concentration in molar units, number only.

IN: Write down the reported pIC50 of CN/C(=N\CCSCc1nc[nH]c1C)NC#N [CIMETIDINE] , test system: UniProt:O15244.
OUT: 4.64

* * *

- System Under Test: Multidrug and toxin extrusion protein 1 (Homo sapiens, UniProt Q96FL8)
- Sequence (Q96FL8 whole entry): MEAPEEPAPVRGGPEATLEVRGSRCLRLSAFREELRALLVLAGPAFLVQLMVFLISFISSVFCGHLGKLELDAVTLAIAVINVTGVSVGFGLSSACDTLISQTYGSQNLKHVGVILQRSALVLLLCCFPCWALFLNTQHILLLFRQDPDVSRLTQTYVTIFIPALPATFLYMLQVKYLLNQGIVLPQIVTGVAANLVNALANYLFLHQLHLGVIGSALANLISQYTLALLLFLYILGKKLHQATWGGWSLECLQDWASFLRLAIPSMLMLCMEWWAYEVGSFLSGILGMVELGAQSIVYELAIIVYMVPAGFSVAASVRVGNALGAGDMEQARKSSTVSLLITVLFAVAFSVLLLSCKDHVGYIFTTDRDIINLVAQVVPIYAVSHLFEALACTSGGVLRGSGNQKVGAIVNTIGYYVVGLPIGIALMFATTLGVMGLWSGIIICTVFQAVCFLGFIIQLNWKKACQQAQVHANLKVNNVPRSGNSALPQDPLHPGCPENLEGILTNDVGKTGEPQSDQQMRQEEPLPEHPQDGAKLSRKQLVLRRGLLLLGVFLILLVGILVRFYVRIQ
Readout Label: IC50 (µM)
Field format: number, assumed µM, no unit text.

• CC(C)N(CCC(C(N)=O)(c1ccccc1)c1ccccn1)C(C)C (configuration not stated) [DISOPYRAMIDE] = 66

IN: Quick check: IC50 of CN(C)CCCN1c2ccccc2CCc2ccccc21 [IMIPRAMINE] ?
OUT: 10

* * *

- System Under Test: Multidrug and toxin extrusion protein 2 (Homo sapiens, UniProt Q86VL8)
- Sequence (Q86VL8 whole entry): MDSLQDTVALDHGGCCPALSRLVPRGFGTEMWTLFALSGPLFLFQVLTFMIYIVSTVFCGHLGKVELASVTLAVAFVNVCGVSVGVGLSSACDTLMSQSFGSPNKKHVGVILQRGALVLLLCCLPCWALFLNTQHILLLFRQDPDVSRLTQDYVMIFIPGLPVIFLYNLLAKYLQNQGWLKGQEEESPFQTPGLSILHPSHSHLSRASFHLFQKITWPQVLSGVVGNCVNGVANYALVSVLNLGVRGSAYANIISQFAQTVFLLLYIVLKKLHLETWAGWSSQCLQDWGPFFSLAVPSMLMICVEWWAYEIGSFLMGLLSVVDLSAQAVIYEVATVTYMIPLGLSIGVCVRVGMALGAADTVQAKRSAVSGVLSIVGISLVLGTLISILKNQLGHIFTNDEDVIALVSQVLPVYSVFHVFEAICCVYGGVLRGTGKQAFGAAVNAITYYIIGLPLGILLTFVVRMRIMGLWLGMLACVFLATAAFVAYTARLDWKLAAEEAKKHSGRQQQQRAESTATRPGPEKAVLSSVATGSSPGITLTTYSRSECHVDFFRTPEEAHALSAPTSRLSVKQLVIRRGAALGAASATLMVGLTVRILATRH
Readout Label: IC50

* CN/C(=N\CCSCc1nc[nH]c1C)NC#N | 39 µM
* CN(C)CCCN1c2ccccc2CCc2ccccc21 | > 100 µM
* Nc1c2c(nc3ccccc13)CCCC2 | > 100 µM

Next compound, please.
IN: Quick check: IC50 of CC(C)N(CCC(C(N)=O)(c1ccccc1)c1ccccn1)C(C)C (centres undefined) [DISOPYRAMIDE] ?
OUT: > 100 µM

* * *

pIC50, Solute carrier family 22 member 1 (Homo sapiens, UniProt O15245): measured values
Lab note: report pIC50 as minus log10 of the concentration in molar units, number only.

- OCCN(CCO)c1nc(N2CCCCC2)c2nc(N(CCO)CCO)nc(N3CCCCC3)c2n1 [DIPYRIDAMOLE]: 4.09
- CN(C)CCCN1c2ccccc2CCc2ccccc21 [IMIPRAMINE]: 4.43

Next compound, please.
IN: Quick check: pIC50 of Nc1c2c(nc3ccccc13)CCCC2 [TACRINE] ?
OUT: 4.08
